# ASSAY REMARKS: Stability in simulated gastric fluid
# Assay type: in vitro ADME
# TEST SETTINGS: 2 μM, 37° C., pH 1.5, pepsin
PROPERTY: half-life (t1/2) in simulated gastric fluid

| COMPOUND | EXPERIMENTAL VALUE |
| --- | --- |
| CCc1cc(OC)ccc1-c1ccc(CC(NC(=O)[C@H](CC(=O)O)NC(=O)[C@H](CO)NC(=O)[C@@H](NC(=O)C(C)(Cc2ccccc2F)NC(=O)[C@@H](NC(=O)CNC(=O)[C@H](CCC(N)=O)NC(=O)[C@H](C)NC(=O)[C@@H](N)Cc2c[nH]cn2)[C@@H](C)O)[C@@H](C)O)C(=O)NC(Cc2ccc(-c3ccccc3F)cc2)C(N)=O)cc1 (single isomer, unassigned) | (8) h |
| CCc1cc(OC)ccc1-c1ccc(CC(NC(=O)[C@H](CC(=O)O)NC(=O)[C@H](CO)NC(=O)[C@@H](NC(=O)C(C)(Cc2ccccc2F)NC(=O)[C@@H](NC(=O)CNC(=O)[C@H](CCC(N)=O)NC(=O)[C@H](CO)NC(=O)[C@@H](N)Cc2c[nH]cn2)[C@@H](C)O)[C@@H](C)O)C(=O)NC(Cc2ccc(-c3ccccc3C)nc2)C(N)=O)cc1 (single isomer, unassigned) | (8) h |
| CCc1cc(OC)ccc1-c1ccc(CC(NC(=O)[C@H](CC(=O)O)NC(=O)[C@H](CO)NC(=O)[C@@H](NC(=O)C(C)(Cc2ccccc2F)NC(=O)[C@@H](NC(=O)CNC(=O)[C@H](CCC(N)=O)NC(=O)[C@H](C)NC(=O)[C@@H](N)Cc2c[nH]cn2)[C@@H](C)O)[C@@H](C)O)C(=O)NC(Cc2ccc(-c3ccccc3C)nc2)C(N)=O)cc1 (single isomer, unassigned) | (8) h |

----------
Would you kindly list half-life at 2 μM for each of these molecules?
# ASSAY REMARKS: Stability against liver microsomes
# Format: in vitro ADME, human
# TEST SETTINGS: human, human liver microsomes, pH 7.8, 37° C., read-out: half-life (t1/2) with liver microsomes
Answers are plain numbers, in min.

Below are 3 molecules. Give each one its half-life at 2 μM.
1. CCc1cc(OC)ccc1-c1ccc(CC(NC(=O)[C@H](CC(=O)O)NC(=O)[C@H](CO)NC(=O)[C@@H](NC(=O)C(C)(Cc2ccccc2F)NC(=O)[C@@H](NC(=O)CNC(=O)[C@H](CCC(N)=O)NC(=O)[C@H](C)NC(=O)[C@@H](N)Cc2c[nH]cn2)[C@@H](C)O)[C@@H](C)O)C(=O)NC(Cc2ccc(-c3ccccc3C)cc2)C(N)=O)cc1 (single isomer, unassigned)
2. CCc1cc(OC)ccc1-c1ccc(CC(NC(=O)[C@H](CC(=O)O)NC(=O)[C@H](CO)NC(=O)[C@@H](NC(=O)C(C)(Cc2ccccc2F)NC(=O)[C@@H](NC(=O)CNC(=O)[C@H](CCC(N)=O)NC(=O)[C@H](CO)NC(=O)[C@@H](N)Cc2c[nH]cn2)[C@@H](C)O)[C@@H](C)O)C(=O)NC(Cc2ccc(-c3ccccc3F)cc2)C(N)=O)cc1 (single isomer, unassigned)
3. CCc1cc(OC)ccc1-c1ccc(CC(NC(=O)[C@H](CC(=O)O)NC(=O)[C@H](CO)NC(=O)[C@@H](NC(=O)[C@H](Cc2ccccc2)NC(=O)[C@@H](NC(=O)CNC(=O)[C@H](CCC(N)=O)NC(=O)[C@H](CO)NC(=O)[C@@H](N)Cc2c[nH]cn2)[C@@H](C)O)[C@@H](C)O)C(=O)NC(Cc2ccc(-c3ccccc3C)cc2)C(N)=O)cc1 (single isomer, unassigned)

Response:
1: 60; 2: 60; 3: 30

Below are 3 molecules. Give each one its half-life at 2 μM.
1. CCc1cc(OC)ccc1-c1ccc(CC(NC(=O)[C@H](CC(=O)O)NC(=O)[C@H](CO)NC(=O)[C@@H](NC(=O)C(C)(Cc2ccccc2F)NC(=O)[C@@H](NC(=O)CNC(=O)[C@H](CCC(N)=O)NC(=O)[C@H](C)NC(=O)[C@@H](N)Cc2c[nH]cn2)[C@@H](C)O)[C@@H](C)O)C(=O)NC(Cc2ccc(-c3ccccc3C(F)(F)F)cc2)C(N)=O)cc1 (single isomer, unassigned)
2. CCc1cc(OC)ccc1-c1ccc(CC(NC(=O)[C@H](CC(=O)O)NC(=O)[C@H](CO)NC(=O)[C@@H](NC(=O)C(C)(Cc2ccccc2F)NC(=O)[C@@H](NC(=O)CNC(=O)[C@H](CCC(N)=O)NC(=O)[C@H](C)NC(=O)[C@@H](N)Cc2c[nH]cn2)[C@@H](C)O)[C@@H](C)O)C(=O)NC(Cc2ccc(-c3ccccc3F)cc2)C(N)=O)cc1 (single isomer, unassigned)
3. CCc1cc(OC)ccc1-c1ccc(CC(NC(=O)[C@H](CC(=O)O)NC(=O)[C@H](CO)NC(=O)[C@@H](NC(=O)[C@H](Cc2ccccc2)NC(=O)[C@@H](NC(=O)CNC(=O)[C@H](CCC(N)=O)NC(=O)[C@H](C)NC(=O)[C@@H](N)Cc2c[nH]cn2)[C@@H](C)O)[C@@H](C)O)C(=O)NC(Cc2ccc(-c3ccccc3C(F)(F)F)cc2)C(N)=O)cc1 (single isomer, unassigned)

Response:
1: 60; 2: 60; 3: 30

Below are 2 molecules. Give each one its half-life at 2 μM.
1. CCc1cc(OC)ccc1-c1ccc(CC(NC(=O)[C@H](CC(=O)O)NC(=O)[C@H](CO)NC(=O)[C@@H](NC(=O)[C@H](Cc2ccccc2)NC(=O)[C@@H](NC(=O)CNC(=O)[C@H](CCC(N)=O)NC(=O)[C@H](CO)NC(=O)[C@@H](N)Cc2c[nH]cn2)[C@@H](C)O)[C@@H](C)O)C(=O)NC(Cc2ccc(-c3ccccc3C)nc2)C(N)=O)cc1 (single isomer, unassigned)
2. CCc1cc(OC)ccc1-c1ccc(CC(NC(=O)[C@H](CC(=O)O)NC(=O)[C@H](CO)NC(=O)[C@@H](NC(=O)[C@H](Cc2ccccc2)NC(=O)[C@@H](NC(=O)CNC(=O)[C@H](CCC(N)=O)NC(=O)[C@H](C)NC(=O)[C@@H](N)Cc2c[nH]cn2)[C@@H](C)O)[C@@H](C)O)C(=O)NC(Cc2ccc(-c3ccccc3F)cc2)C(N)=O)cc1 (single isomer, unassigned)

Response:
30
30
